Taken from patent US20230043863A1.

Provide the recorded pIC50 for the entries that follow.
- TESTED ON: UniProt:P23458
- Sequence (P23458 whole entry): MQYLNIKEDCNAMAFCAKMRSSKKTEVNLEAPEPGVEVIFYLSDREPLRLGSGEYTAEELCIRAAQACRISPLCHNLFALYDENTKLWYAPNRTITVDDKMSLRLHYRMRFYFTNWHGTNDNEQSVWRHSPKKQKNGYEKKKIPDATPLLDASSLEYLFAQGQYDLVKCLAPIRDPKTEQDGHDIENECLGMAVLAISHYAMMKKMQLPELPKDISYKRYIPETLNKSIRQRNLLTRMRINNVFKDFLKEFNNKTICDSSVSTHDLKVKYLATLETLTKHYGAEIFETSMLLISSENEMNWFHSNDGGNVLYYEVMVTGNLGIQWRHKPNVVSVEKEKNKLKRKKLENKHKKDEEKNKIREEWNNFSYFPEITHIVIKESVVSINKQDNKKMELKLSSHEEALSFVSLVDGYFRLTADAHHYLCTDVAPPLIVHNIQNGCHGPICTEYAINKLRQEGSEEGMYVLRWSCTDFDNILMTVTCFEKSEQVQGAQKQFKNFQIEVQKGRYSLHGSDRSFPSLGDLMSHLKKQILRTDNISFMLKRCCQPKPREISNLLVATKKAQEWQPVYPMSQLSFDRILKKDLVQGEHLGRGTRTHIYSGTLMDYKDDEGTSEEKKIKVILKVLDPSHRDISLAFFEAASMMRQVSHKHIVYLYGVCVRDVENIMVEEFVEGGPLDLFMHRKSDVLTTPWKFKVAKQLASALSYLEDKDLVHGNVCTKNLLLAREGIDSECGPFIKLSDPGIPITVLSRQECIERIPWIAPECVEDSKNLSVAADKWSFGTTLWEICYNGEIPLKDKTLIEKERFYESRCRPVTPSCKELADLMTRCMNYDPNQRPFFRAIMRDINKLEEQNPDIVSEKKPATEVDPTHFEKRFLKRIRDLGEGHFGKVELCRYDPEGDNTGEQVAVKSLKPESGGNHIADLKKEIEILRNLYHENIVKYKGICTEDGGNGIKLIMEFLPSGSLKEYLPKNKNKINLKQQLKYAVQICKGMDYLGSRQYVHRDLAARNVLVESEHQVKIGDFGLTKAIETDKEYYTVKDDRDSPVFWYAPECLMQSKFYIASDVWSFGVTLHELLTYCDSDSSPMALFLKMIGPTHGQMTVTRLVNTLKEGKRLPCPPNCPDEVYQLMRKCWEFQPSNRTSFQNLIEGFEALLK
# pIC50 = -log10(concentration in molar units)

Exercise: For the compound N#CCCN1[C@@H]2CC[C@H]1C[C@H](Nc1nc(Nc3cc(C4CC4)[nH]n3)cc3ncccc13)C2 [Embodiment 12] , what pIC50 is on record?
Solution: 8.57

Exercise: Note, next up: Cc1cc(Nc2nc(N[C@@H]3C[C@H]4CC[C@@H](C3)N4S(=O)(=O)c3cccnc3)nc3sccc23)n[nH]1 [Embodiment 265]
Solution: 8.89

Exercise: Same read-out for Cc1cc(Nc2nc(N[C@@H]3C[C@H]4CC[C@@H](C3)N4C(=O)CN3CCOCC3)nc3sccc23)n[nH]1 [Embodiment 244] ?
Solution: 8.94

Exercise: Query Cc1cc(Nc2nc(N(C)[C@@H]3C[C@H]4CCC[C@@H](C3)N4S(=O)(=O)N3CC(C#N)C3)nc3sccc23)n[nH]1 [Embodiment 239] next
Solution: 9.89

Exercise: Follow-up entry: Cc1cc(Nc2nc(N[C@@H]3C[C@H]4CC[C@@H](C3)N4CCC#N)nc3scnc23)n[nH]1 [Embodiment 66]
Solution: 8.52

Exercise: Request: N#CCCN1[C@@H]2CC[C@H]1C[C@H](Nc1nc(Nc3ncc(CO)s3)cc3ncccc13)C2 [Embodiment 2]
Solution: 9.96

Exercise: Then COc1ccc(-c2ccc3c(Nc4cc(C)[nH]n4)nc(N[C@@H]4C[C@H]5CC[C@@H](C4)N5CCC#N)nc3c2)cn1 [Embodiment 183] ?
Solution: 9.74

Exercise: Check Cc1cc(Nc2nc(N[C@@H]3C[C@H]4CC[C@@H](C3)N4C(=O)c3ccccn3)nc3ccccc23)n[nH]1 [Embodiment 226] too.
Solution: 7.88

Exercise: What about this compound? Cc1cc(Nc2cc3ncccc3c(N(C)[C@@H]3C[C@H]4CC[C@@H](C3)N4CCC#N)n2)n[nH]1 [Embodiment 111]
Solution: 8.24

Exercise: Request: Cc1cc(Nc2nc(N(C)[C@@H]3C[C@H]4CCC[C@@H](C3)N4C(=O)CN3CCN(C)CC3)nc3sccc23)n[nH]1 [Embodiment 257]
Solution: 10.15

Exercise: Ok, now Cc1cc(Nc2cc3ncccc3c(N3CC4CCC(C3)N4CCC#N)n2)n[nH]1 [Embodiment 109]
Solution: 8.11

Exercise: Try this compound next: CNCC(=O)N1[C@@H]2CCC[C@H]1C[C@H](Nc1nc(Nc3cc(C)[nH]n3)c3ccsc3n1)C2 [Embodiment 247]
Solution: 10.00

Exercise: Okay, and Cc1cc(Nc2nc(N[C@@H]3C[C@H]4CCC[C@@H](C3)N4S(=O)(=O)c3cccnc3)nc3sccc23)n[nH]1 [Embodiment 268] ?
Solution: 9.68

Exercise: Input Cc1cc(Nc2nc(N[C@@H]3C[C@H]4CCC[C@@H](C3)N4S(=O)(=O)N3CC(C#N)C3)nc3ccccc23)n[nH]1 [Embodiment 217]
Solution: 10.40
